Test system: Rhizoctonia solani
Assay: Antifungal activity against Rhizoctonia solani Nees assessed as inhibition of fungal growth
Assay type: functional
Conditions: read-out: ED50 (the source's name)
readout_label: EC50 (µg/mL)
The response must be a number in µg/mL with no trailing unit.

Worked examples follow.
Cc1cc(CC(C)C)oc(=O)c1	48.7
CCCCCCCCCCc1cc(C)cc(=O)o1	267

Now let's try a different one.
EC50 for C/C=C/c1cc(C)cc(=O)o1 is 294

----------
Tested on: Athelia rolfsii
Assay: Antifungal activity against Athelia rolfsii assessed as inhibition of fungal growth
Assay type: functional
Conditions: Agroathelia rolfsii; read-out: ED50 (the source's name)
Reported EC50 values for the following compounds.
The response must be a number in µg/mL with no trailing unit.

Form field EC50 for item CCc1cc(C)cc(=O)o1 on Athelia rolfsii: 665

Form field EC50 for item Cc1cc(C)oc(=O)c1 on Athelia rolfsii: 713

Form field EC50 for item C/C=C/c1cc(C)cc(=O)o1 on Athelia rolfsii: 404

Measured values drawn from ChEMBL document CHEMBL3045854 for this set.
